- Test system: Escherichia coli ClpP (C-terminal His6-tagged)
- EXPERIMENT: Selectivity index, ratio of EC50 for human A549 cells to IC50 for Escherichia coli C-terminal His6-tagged ClpP expressed Escherichia coli SG1146a
- Type: toxicity
- TEST PARAMETERS: read-out: Selectivity Index
READOUT NAME: selectivity ratio

Nc1ccc(C(NC(=O)OCc2ccccc2)P(=O)(Oc2ccccc2)Oc2ccccc2)cc1 (configuration not stated) :: < 10

Could you now look at the following compound, please?
Reported selectivity ratio for O=C(NC(c1ccc(NC(=O)C(F)(F)F)cc1)P(=O)(Oc1ccccc1)Oc1ccccc1)OCc1ccc2c(c1)OCO2 (configuration not stated) was < 10

* * *

Listing of entries alongside the reported inhibition.
- ASSAYED SYSTEM: ATP-dependent Clp protease proteolytic subunit (Escherichia coli (strain K12)) (UniProt P0A6G7)
- Sequence (P0A6G7 whole entry): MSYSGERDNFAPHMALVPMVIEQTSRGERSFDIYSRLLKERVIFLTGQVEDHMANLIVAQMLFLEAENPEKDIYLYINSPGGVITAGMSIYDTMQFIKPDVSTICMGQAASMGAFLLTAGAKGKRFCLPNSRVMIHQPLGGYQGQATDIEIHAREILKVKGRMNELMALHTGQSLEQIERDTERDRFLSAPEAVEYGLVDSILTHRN
- EXPERIMENT: Inhibition of Escherichia coli C-terminal His6-tagged ClpP expressed Escherichia coli SG1146a at 200 uM using Suc-LY-AMC as substrate preincubated for 10 mins followed by substrate addition and measured over 1 hr by fluorescence assay relative to control
The figure you give is taken to be in %; do not add the unit.

Worked cases, answers included:
CN(C)c1ccc(C(NC(=O)OCc2ccccc2)P(=O)(Oc2ccccc2)Oc2ccccc2)cc1 (configuration not stated) :: 100
O=C(NC(c1cccnc1)P(=O)(Oc1ccccc1)Oc1ccccc1)OCc1ccccc1 (configuration not stated) :: 27
CC(C)C[C@H](NC(=O)OCc1ccccc1)C(=O)N[C@H](C#N)Cc1ccc(O)cc1 :: 13
N=C(NO)c1cccc(C(Nc2ncccn2)P(=O)(Oc2ccccc2)Oc2ccccc2)c1 (configuration not stated) :: 23

Reported inhibition for N=C(N)Nc1ccc(CC(NC(=O)OCc2c(F)c(F)c(F)c(F)c2F)P(=O)(Oc2ccccc2)Oc2ccccc2)cc1 (configuration not stated) was 25

Reported inhibition for N=C(N)N1CCC(C(Nc2ncc(-c3ccccc3)cn2)P(=O)(Oc2ccccc2)Oc2ccccc2)CC1 (configuration not stated) was 12

Reported inhibition for N=C(N)N1CCC(C(NC(=O)c2cccnc2)P(=O)(Oc2ccccc2)Oc2ccccc2)CC1 (configuration not stated) was 13

Reported inhibition for CC(=O)Nc1ccc(OP(=O)(Oc2ccc(NC(C)=O)cc2)C(Cc2ccc(C(F)(F)F)cc2)NC(=O)OCc2ccccc2)cc1 (configuration not stated) was 1

Reported inhibition for CC(=O)Nc1ccc(OP(=O)(Oc2ccc(NC(C)=O)cc2)C(Cc2ccccc2)NC(=O)OCc2ccccc2)cc1 (configuration not stated) was 9

Reported inhibition for O=C(NC(c1ccc(NC(=O)C(F)(F)F)cc1)P(=O)(Oc1ccccc1)Oc1ccccc1)OCc1ccc2c(c1)OCO2 (configuration not stated) was 93

Reported inhibition for CN(C)c1ccc(C(NC(=O)OCc2ccccc2)P(=O)(Oc2ccccc2)Oc2ccccc2)cc1NS(C)(=O)=O (configuration not stated) was 46

Reported inhibition for O=C(NC(c1ccc2occc2c1)P(=O)(Oc1ccccc1)Oc1ccccc1)OCc1ccccc1 (configuration not stated) was 6

Reported inhibition for O=C(NC(COCc1ccccc1)P(=O)(Oc1ccccc1)Oc1ccccc1)OCc1ccccc1 (configuration not stated) was 4

Reported inhibition for [N-]=[N+]=NCCOCCOC(=O)NC(Cc1ccc(NC(=N)N)cc1)P(=O)(Oc1ccccc1)Oc1ccccc1 (configuration not stated) was 68

Reported inhibition for O=C(NC(c1cccc([N+](=O)[O-])c1)P(=O)(Oc1ccccc1)Oc1ccccc1)OCc1ccccc1 (configuration not stated) was 6

Reported inhibition for C[C@H](NC(=O)[C@H](CO)NC(=O)c1cccs1)C(=O)NC(Cc1ccc(NC(=N)N)cc1)P(=O)(Oc1ccccc1)Oc1ccccc1 (some centres not stated) was 90

Where do the numbers come from? From ChEMBL document CHEMBL4371075.
